tested on: Lichtheimia corymbifera; assay: Antifungal activity against Absidia corymbifera 272 after 48 hrs by microdilution broth method; format: functional; details: Lichtheimia corymbifera, 272, 48 h
property: MIC

Input: Indicate the recorded MIC value for this compound: O=C(Nc1cccc(Cl)c1)c1cc([N+](=O)[O-])ccc1O
Output: > 500 µM

Input: Determine from records and report MIC for O=C(Nc1cccc(I)c1)c1cc([N+](=O)[O-])ccc1O
Output: > 500 µM

Input: Look up and report measured MIC for this entry: O=C(Nc1ccc([N+](=O)[O-])cc1)c1ccc([N+](=O)[O-])cc1O
Output: > 500 µM

Input: Note down MIC recorded for O=C(Nc1ccc([N+](=O)[O-])cc1)c1cc([N+](=O)[O-])ccc1O
Output: > 500 µM

Input: Quote MIC reported for O=C(Nc1cccc([N+](=O)[O-])c1)c1cc([N+](=O)[O-])ccc1O please.
Output: > 250 µM

Input: Tell us which MIC value is on record for O=C(Nc1cccc([N+](=O)[O-])c1)c1ccc([N+](=O)[O-])cc1O
Output: > 250 µM

Data origin, for the record: ChEMBL document CHEMBL3627671
